Origin of values: patent US12679839B2

- Test system: RNA polymerase II Serine 5 phosphorylation (Rpb1 CTD), downstream substrate of CDK7
- procedure-details: Imaging-based cellular RNA PolII Ser5 phosphorylation assay in A549 cells
- Type: cell-based, human
- experimental-conditions: Homo sapiens, A549, 3 h, challenged with compound for 3 hours, read-out: pRNA polII Ser5 (A549) pIC50 (converted)
measured-parameter: IC50 (nM)

P: C[C@@H]1Cc2cnc(NCC3CC3)nc2CN1C(=O)[C@H]1CCN(C)C[C@@H]1c1ccccc1
Q: C[C@@H]1Cc2cnc(NC3CCN(C(=O)C4CC4)CC3)nc2CN1C(=O)[C@H]1CCN(C)C[C@@H]1c1ccccc1
[ask] // pick min by IC50: P , Q Lab log: write the label of the selected item as the result.
[reply] Q
(Q: 162 nM, P: 275 nM)
